QUANTITY_KIND: melting point

## Task Return melting point for the following compound: CC(C)(C)NC(=O)C(C)(C)N(OC(c1ccccc1)c1ccccc1)C(C)(C)C
## Result 89 to 92 °C

## Task Return value of melting point for input N#CC=Cc1cccc(Br)c1 , no commentary.
## Result 62 °C

## Task Name the recorded melting point of the item Cc1nc2cc(NC(=O)c3cc4cc(F)ccc4n3Cc3cccc(F)c3)cnc2s1 in your answer.
## Result 264 to 265 °C

## Task Quickly give me recorded melting point for CCc1noc(-c2cn(-c3cc(Cl)ccc3OC)cn2)n1
## Result 139 to 140 °C

## Task Return reported melting point. Input compound: CC#CCOc1ccc(S(=O)(=O)C(C(=O)NO)c2ccc(Br)cc2)cc1 (stereo unspecified)
## Result 187 °C

## Task Answer with the recorded melting point for the compound listed here: CCCC=Cc1ncn2c1CN(C)C(=O)c1cc(F)ccc1-2
## Result 150 to 151 °C

## Task Using known records, supply melting point for CC1(C2CCC3C4CCC5CC(CC(=O)O)CCC5(C)C4CCC32C)OCCO1 (stereo unspecified)
## Result 164 to 167 °C

## Task Give me measured melting point, please, for this compound: CC(=O)NCc1ccc2ccn(C3CCN(CCCCc4ccc(F)cc4)CC3)c2c1
## Result 59 to 60 °C
